Reference source: patent US6569878B1

- Measured on: CDK2/cyclin A (Homo sapiens, UniProt P24941)
- Construct: made in house; host or cells: CDK2: insect cells (baculovirus); cyclin A: E. coli, then limited proteolysis
- Assay info: Inhibition of CDK2/cyclin A retinoblastoma kinase activity
- Type: biochemical
- Assay setup: read-out: Ki CDK 2/A
Metric: pKi
Keep in mind that pKi stands for -log10 of concentration in molar terms.

{"Compound": "Nc1nc(Nc2ccc3nc[nH]c3c2)sc1C(=O)c1c(Cl)cc(C(F)(F)F)cc1Cl", "Value": 6.51}

Task: Bench note: what pKi did Nc1nc(Nc2ccc(-c3ccncc3)cc2)sc1C(=O)c1c(F)cccc1F show?
Result: 6.78

Task: Bench note: what pKi did Nc1nc(Nc2ccccc2)sc1C(=O)c1ccccn1 show?
Result: 5.51
